- Study system: Toll-like receptor 4 (Homo sapiens)
- Protocol notes: Activation of TLR4 in human PBMC cells assessed as AUC of IL8 release at 10 uM after 18 hrs by ELISA relative to N-cyclohexyl-2-(4-oxo-3-phenyl-4,5-dihydro-3H-pyrimido[5,4-b]indol-2-ylthio)acetamide
- Type: cell-based
Activity vs 10%: at or above is rule met, below is rule not met.

| Molecule | Assigned class |
| --- | --- |
| CCCCCCCC/C=C\CCCCCCCC(=O)OC[C@H](COP(=O)(O)OCCNC(=O)CSc1nc2c([nH]c3ccccc32)c(=O)n1-c1ccccc1)OC(=O)CCCCCCC/C=C\CCCCCCCC | rule not met |
| O=C(CSc1nc2c([nH]c3ccccc32)c(=O)n1-c1ccccc1)Nc1nccs1 | rule not met |
| O=C(CSc1nc2c([nH]c3ccccc32)c(=O)n1-c1ccccc1)Nc1cccc(F)c1 | rule met |
| Cc1cccc(NC(=O)CSc2nc3c([nH]c4ccccc43)c(=O)n2-c2ccccc2)c1 | rule met |
| O=C(CSc1nc2c([nH]c3ccccc32)c(=O)n1-c1ccccc1)Nc1ccccc1F | rule met |
| O=C(CSc1nc2c([nH]c3ccccc32)c(=O)n1-c1ccccc1)NC1CCCC1 | rule not met |
| CC(C)(C)CCNC(=O)CSc1nc2c([nH]c3ccccc32)c(=O)n1-c1ccccc1 | rule met |
| O=C(CSc1nc2c([nH]c3ccccc32)c(=O)n1CCc1ccccc1)NC1CCCCC1 | rule not met |
| CCC(C)CCNC(=O)CSc1nc2c([nH]c3ccccc32)c(=O)n1-c1ccccc1 (centres undefined) | rule met |

###

- Study system: Toll-like receptor 4 (Homo sapiens) (UniProt O00206)
- Sequence (O00206 whole entry): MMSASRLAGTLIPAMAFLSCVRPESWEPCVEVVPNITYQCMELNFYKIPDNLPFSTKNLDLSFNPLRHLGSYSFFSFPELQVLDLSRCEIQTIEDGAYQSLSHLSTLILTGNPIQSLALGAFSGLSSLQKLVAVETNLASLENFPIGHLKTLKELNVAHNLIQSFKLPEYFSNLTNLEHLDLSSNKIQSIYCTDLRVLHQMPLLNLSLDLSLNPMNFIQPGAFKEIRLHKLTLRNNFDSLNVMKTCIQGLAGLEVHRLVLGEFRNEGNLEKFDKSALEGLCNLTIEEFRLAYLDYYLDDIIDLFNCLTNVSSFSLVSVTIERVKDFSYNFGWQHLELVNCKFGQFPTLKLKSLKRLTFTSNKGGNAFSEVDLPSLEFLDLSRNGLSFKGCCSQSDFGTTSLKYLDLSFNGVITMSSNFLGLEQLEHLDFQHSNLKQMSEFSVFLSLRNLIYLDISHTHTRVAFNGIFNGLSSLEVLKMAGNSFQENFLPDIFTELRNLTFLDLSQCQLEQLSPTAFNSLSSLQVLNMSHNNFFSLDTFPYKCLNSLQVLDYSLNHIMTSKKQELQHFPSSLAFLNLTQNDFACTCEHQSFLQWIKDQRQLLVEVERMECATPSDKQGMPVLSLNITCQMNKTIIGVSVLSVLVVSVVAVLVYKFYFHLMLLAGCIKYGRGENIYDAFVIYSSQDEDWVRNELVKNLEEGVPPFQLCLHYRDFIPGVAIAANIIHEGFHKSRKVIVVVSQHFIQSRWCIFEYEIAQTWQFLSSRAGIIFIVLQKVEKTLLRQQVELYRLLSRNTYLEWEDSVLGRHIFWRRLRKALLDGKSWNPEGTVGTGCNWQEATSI
- Protocol notes: Activation of TLR4 in human PBMC cells assessed as AUC of IL8 release at 10 uM after 18 hrs by ELISA relative to N-cyclohexyl-2-(4-oxo-3-phenyl-4,5-dihydro-3H-pyrimido[5,4-b]indol-2-ylthio)acetamide
- Format: cell-based
Experimental readout: Activity (%)

| Molecule | Study system | Experimental readout | Qualifier symbol | Endpoint value |
| --- | --- | --- | --- | --- |
| O=C(CSc1nc2c([nH]c3ccccc32)c(=O)n1-c1ccccc1)NC1CCC1 | Toll-like receptor 4 (Homo sapiens) (UniProt O00206) | Activity | = | 19 |
| CCCC(C)NC(=O)CSc1nc2c([nH]c3ccccc32)c(=O)n1-c1ccccc1 (stereo not given) | Toll-like receptor 4 (Homo sapiens) (UniProt O00206) | Activity | = | 6 |
| CC(C)(C)NC(=O)CSc1nc2c([nH]c3ccccc32)c(=O)n1-c1ccccc1 | Toll-like receptor 4 (Homo sapiens) (UniProt O00206) | Activity | = | 5 |
| O=C(CSc1nc2c([nH]c3ccccc32)c(=O)n1-c1ccccc1)NC1CCCCC1 | Toll-like receptor 4 (Homo sapiens) (UniProt O00206) | Activity | = | 100 |
| NC(=O)Cn1c2ccccc2c2nc(SCC(=O)NC3CCCCC3)n(-c3ccccc3)c(=O)c21 | Toll-like receptor 4 (Homo sapiens) (UniProt O00206) | Activity | = | 4 |
| O=C(CSc1nc2c([nH]c3ccccc32)c(=O)n1-c1ccccc1)Nc1ccc(F)cc1 | Toll-like receptor 4 (Homo sapiens) (UniProt O00206) | Activity | = | 107 |
| CCCCCCCCCCCCn1c2ccccc2c2nc(SCC(=O)NC3CCCCC3)n(-c3ccccc3)c(=O)c21 | Toll-like receptor 4 (Homo sapiens) (UniProt O00206) | Activity | < | 1 |
| Cc1ccc(-n2c(SCC(=O)NC3CCCCC3)nc3c([nH]c4ccccc43)c2=O)cc1 | Toll-like receptor 4 (Homo sapiens) (UniProt O00206) | Activity | = | 6 |
| CCCCCn1c2ccccc2c2nc(SCC(=O)NC3CCCCC3)n(-c3ccccc3)c(=O)c21 | Toll-like receptor 4 (Homo sapiens) (UniProt O00206) | Activity | = | 1 |
| O=C(CSc1nc2c([nH]c3ccccc32)c(=O)n1-c1ccc(F)cc1)NC1CCCCC1 | Toll-like receptor 4 (Homo sapiens) (UniProt O00206) | Activity | = | 5 |
| CN(C(=O)CSc1nc2c3ccccc3n(C)c2c(=O)n1-c1ccccc1)C1CCCCC1 | Toll-like receptor 4 (Homo sapiens) (UniProt O00206) | Activity | = | 5 |
| O=C(CSc1nc2c([nH]c3ccccc32)c(=O)n1-c1ccccc1)NCc1ccco1 | Toll-like receptor 4 (Homo sapiens) (UniProt O00206) | Activity | = | 15 |
| CCCCCCNC(=O)CSc1nc2c([nH]c3ccccc32)c(=O)n1-c1ccccc1 | Toll-like receptor 4 (Homo sapiens) (UniProt O00206) | Activity | = | 7 |
| CCCCNC(=O)CSc1nc2c([nH]c3ccccc32)c(=O)n1-c1ccccc1 | Toll-like receptor 4 (Homo sapiens) (UniProt O00206) | Activity | = | 29 |
| O=C(CSc1nc2c([nH]c3ccccc32)c(=O)n1-c1ccccc1)NC1CCNCC1 | Toll-like receptor 4 (Homo sapiens) (UniProt O00206) | Activity | = | 17 |
| CCCCCNC(=O)CSc1nc2c([nH]c3ccccc32)c(=O)n1-c1ccccc1 | Toll-like receptor 4 (Homo sapiens) (UniProt O00206) | Activity | = | 25 |
| CC(C)CNC(=O)CSc1nc2c([nH]c3ccccc32)c(=O)n1-c1ccccc1 | Toll-like receptor 4 (Homo sapiens) (UniProt O00206) | Activity | = | 11 |
| CCC(CC)NC(=O)CSc1nc2c([nH]c3ccccc32)c(=O)n1-c1ccccc1 | Toll-like receptor 4 (Homo sapiens) (UniProt O00206) | Activity | < | 1 |
| O=C(CSc1nc2c([nH]c3ccccc32)c(=O)n1-c1ccccc1)NC1CCCCCCC1 | Toll-like receptor 4 (Homo sapiens) (UniProt O00206) | Activity | = | 73 |
| O=C(CSc1nc2c([nH]c3ccccc32)c(=O)n1-c1ccccc1)NC1CCCCCC1 | Toll-like receptor 4 (Homo sapiens) (UniProt O00206) | Activity | = | 118 |

###

Reported Activity values are given for each entry in this list.
- Study system: Toll-like receptor 4 (Mus musculus)
- Protocol notes: Activation of TLR4 in C57BL/6 mouse BMDC cells assessed as AUC of IL6 release after 18 hrs by ELISA relative to N-cyclohexyl-2-(4-oxo-3-phenyl-4,5-dihydro-3H-pyrimido[5,4-b]indol-2-ylthio)acetamide
- Type: cell-based
Experimental readout: Activity (%)

| Structure smiles string | Result units | Qualifier symbol | Endpoint value |
| --- | --- | --- | --- |
| O=C(CSc1nc2c([nH]c3ccccc32)c(=O)n1-c1ccccc1)Nc1ccc2ccccc2c1 | % | < | 1 |
| O=C(CSc1nc2c([nH]c3ccccc32)c(=O)n1-c1ccccc1)NC1CCCCCCC1 | % | = | 114 |
| O=C(CSc1nc2c([nH]c3ccccc32)c(=O)n1-c1ccccc1)NC1CCC1 | % | = | 35 |
| CN(C(=O)CSc1nc2c3ccccc3n(C)c2c(=O)n1-c1ccccc1)C1CCCCC1 | % | < | 1 |
| CC(C)CCNC(=O)CSc1nc2c([nH]c3ccccc32)c(=O)n1-c1ccccc1 | % | = | 61 |

###

Reported Activity values are given for each entry in this list.
- Study system: Toll-like receptor 4 (Homo sapiens)
- Protocol notes: Activation of human TLR4 transfected in HEK293 cells after 18 hrs by SEAP assay relative to N-cyclohexyl-2-(4-oxo-3-phenyl-4,5-dihydro-3H-pyrimido[5,4-b]indol-2-ylthio)acetamide
- Type: cell-based
- Set-up: concentration or dose not given beside the values

| Compound | Qualifier symbol | Activity (%) |
| --- | --- | --- |
| O=C(CSc1nc2c([nH]c3ccccc32)c(=O)n1-c1ccccc1)Nc1cccc(F)c1 | = | 39 |
| O=C(CSc1nc2c([nH]c3ccccc32)c(=O)n1-c1ccccc1)NC1CCC1 | = | 32 |
| O=C(CSc1nc2c([nH]c3ccccc32)c(=O)n1C1CCCCC1)NC1CCCC1 | = | 33 |
| O=C(CSc1nc2c([nH]c3ccccc32)c(=O)n1-c1ccccc1)Nc1ccc2ccccc2c1 | = | 21 |
| CCCCCCCCCCCCn1c2ccccc2c2nc(SCC(=O)NC3CCCCC3)n(-c3ccccc3)c(=O)c21 | = | 10 |
| O=C(CSc1nc2c([nH]c3ccccc32)c(=O)n1-c1ccccc1)NCc1ccco1 | = | 27 |
| O=C(CSc1nc2c([nH]c3ccccc32)c(=O)n1-c1ccc(F)cc1)NC1CCCCC1 | = | 51 |
| CCNC(=O)CSc1nc2c([nH]c3ccccc32)c(=O)n1-c1ccccc1 | = | 8 |
| CCCCNC(=O)CSc1nc2c([nH]c3ccccc32)c(=O)n1-c1ccccc1 | = | 32 |
| Cn1c2ccccc2c2nc(SCC(=O)NC3CCCCC3)n(-c3ccccc3)c(=O)c21 | = | 92 |
| Cc1cccc(NC(=O)CSc2nc3c([nH]c4ccccc43)c(=O)n2-c2ccccc2)c1 | = | 116 |
| CC(C)(C)NC(=O)CSc1nc2c([nH]c3ccccc32)c(=O)n1-c1ccccc1 | = | 6 |
| CC(C)CNC(=O)CSc1nc2c([nH]c3ccccc32)c(=O)n1-c1ccccc1 | = | 21 |
| COC(=O)CCCn1c2ccccc2c2nc(SCC(=O)NC3CCCCC3)n(-c3ccccc3)c(=O)c21 | = | 19 |
| O=C(CSc1nc2c([nH]c3ccccc32)c(=O)n1-c1ccccc1)NC1CCCCC1 | = | 100 |
| N#CCn1c2ccccc2c2nc(SCC(=O)NC3CCCCC3)n(-c3ccccc3)c(=O)c21 | = | 19 |
| CCCCCCNC(=O)CSc1nc2c([nH]c3ccccc32)c(=O)n1-c1ccccc1 | = | 8 |
| O=C(CSc1nc2c([nH]c3ccccc32)c(=O)n1-c1ccc2ccccc2c1)NC1CCCCC1 | = | 3 |
| O=C(CSc1nc2c([nH]c3ccccc32)c(=O)n1-c1ccccc1)NC1CCCC1 | = | 23 |
| CCCCCNC(=O)CSc1nc2c([nH]c3ccccc32)c(=O)n1-c1ccccc1 | = | 23 |
| O=C(CSc1nc2c([nH]c3ccccc32)c(=O)n1-c1ccccc1)Nc1nccs1 | = | 12 |
| Cc1ccc(-n2c(SCC(=O)NC3CCCCC3)nc3c([nH]c4ccccc43)c2=O)cc1 | = | 2 |
| O=C(CSc1nc2c([nH]c3ccccc32)c(=O)n1CCc1ccccc1)NC1CCCCC1 | = | 1 |
| CCCCCCCC/C=C\CCCCCCCC(=O)OC[C@H](COP(=O)(O)OCCNC(=O)CSc1nc2c([nH]c3ccccc32)c(=O)n1-c1ccccc1)OC(=O)CCCCCCC/C=C\CCCCCCCC | < | 1 |
| CN(C(=O)CSc1nc2c3ccccc3n(C)c2c(=O)n1-c1ccccc1)C1CCCCC1 | < | 1 |
| O=C(CSc1nc2c([nH]c3ccccc32)c(=O)n1-c1ccccc1)Nc1ccccc1 | = | 31 |
| O=C(CSc1nc2c([nH]c3ccccc32)c(=O)n1-c1ccccc1)Nc1ccc(F)cc1 | = | 108 |
| O=C(CSc1nc2c([nH]c3ccccc32)c(=O)n1C1CCCCC1)NC1CCCCC1 | = | 40 |
| CCC(CC)NC(=O)CSc1nc2c([nH]c3ccccc32)c(=O)n1-c1ccccc1 | = | 11 |
| O=C(CSc1nc2c([nH]c3ccccc32)c(=O)n1-c1ccccc1)NC1CCNCC1 | < | 1 |
| CC(C)(C)CCNC(=O)CSc1nc2c([nH]c3ccccc32)c(=O)n1-c1ccccc1 | = | 72 |
| O=C(CSc1nc2c([nH]c3ccccc32)c(=O)n1-c1ccccc1)Nc1ccc2cn[nH]c2c1 | < | 1 |
| O=C(CSc1nc2c([nH]c3ccccc32)c(=O)n1-c1ccccc1)NC1CCCCCCC1 | = | 64 |
| O=C(CSc1nc2c([nH]c3ccccc32)c(=O)n1-c1ccccc1)Nc1ccccc1F | = | 71 |
| CCC(C)CCNC(=O)CSc1nc2c([nH]c3ccccc32)c(=O)n1-c1ccccc1 (stereo unspecified) | = | 17 |
| O=C(CSc1nc2c3ccccc3nc-2c(O)n1-c1ccccc1)NCC1CCCO1 (stereo unspecified) | = | 13 |
